assay: Hemolytic activity in male Sprague-Dawley rat erythrocytes at 100 uM incubated for 1 hr by absorbance based method relative to control; type: toxicity, cell-based, Erythrocyte; conditions: read-out: Activity
Non-standard residues stand in square brackets, D forms with d. Residues, ends and D or L forms follow the SMILES beside them. *: point of attachment. X3 = NC(=O)[C@H](Cc1c[nH]cn1)NC(=O)CNC(=O)[C@@H](N)CN(CCc1c[nH]c2ccccc12)*; X1 = NC(=O)[C@H](Cc1c[nH]cn1)NC(=O)CNC(=O)[C@@H](N)CN*; Gly(N(CH2)2(3-indolyl)) = O=C(O)CNCCc1c[nH]c2ccccc12; Nspe = C[C@H](NCC(=O)O)c1ccccc1; Nphe = O=C(O)CNCc1ccccc1; Nlys = NCCCCNCC(=O)O
Measured Quantity: hemolysis at 1 h, 100 µM (%)
One number for each entry, in %.

Below are worked cases with known answers.
C[C@@H](c1ccccc1)N(CC(=O)NCC(=O)NC[C@H](N)C(=O)NCC(=O)N[C@@H](Cc1c[nH]cn1)C(N)=O)C(=O)CN(CCCCN)C(=O)CN(C(=O)CN(C(=O)CN(CCCCN)C(=O)CN(C(=O)CN(C(=O)CN(CCCCN)C(=O)CN(C(=O)CN(C(=O)CNCCCCN)[C@@H](C)c1ccccc1)[C@@H](C)c1ccccc1)[C@@H](C)c1ccccc1)[C@@H](C)c1ccccc1)[C@@H](C)c1ccccc1)[C@@H](C)c1ccccc1 (H-[Nlys][Nspe][Nspe][Nlys][Nspe][Nspe][Nlys][Nspe][Nspe][Nlys][Nspe]G-X1) : 23.2
C[C@@H](c1ccccc1)N(CC(=O)N(CCCCN)CC(=O)N(CC(=O)N(CC(=O)N(CCCCN)CC(=O)N(CC(=O)N(CC(=O)N(CCCCN)CC(=O)N(CC(=O)N(CC(N)=O)Cc1ccccc1)Cc1ccccc1)Cc1ccccc1)Cc1ccccc1)Cc1ccccc1)Cc1ccccc1)C(=O)CN(Cc1ccccc1)C(=O)CNCCCCN (H-[Nlys][Nphe][Nspe][Nlys][Nphe][Nphe][Nlys][Nphe][Nphe][Nlys][Nphe][Nphe]-NH2) : 13.7
C[C@@H](c1ccccc1)N(CC(=O)N(CCCCN)CC(=O)N(CC(=O)N(CC(=O)N(CCCCN)CC(=O)N(CC(=O)N(CC(=O)N(CCCCN)CC(=O)N(CCc1c[nH]c2ccccc12)CC(=O)N(CCc1c[nH]c2ccccc12)C[C@H](N)C(=O)NCC(=O)N[C@@H](Cc1c[nH]cn1)C(N)=O)[C@@H](C)c1ccccc1)[C@@H](C)c1ccccc1)[C@@H](C)c1ccccc1)[C@@H](C)c1ccccc1)C(=O)CN(C(=O)CNCCCCN)[C@@H](C)c1ccccc1 (H-[Nlys][Nspe][Nspe][Nlys][Nspe][Nspe][Nlys][Nspe][Nspe][Nlys][Gly(N(CH2)2(3-indolyl))]-X3) : 29

Q: Recorded hemolysis at 1 h, 100 µM for C[C@@H](c1ccccc1)N(CC(=O)N(CCCCN)CC(=O)N(CC(=O)N(CC(=O)N(CCCCN)CC(=O)N(CC(=O)N(CC(=O)NC[C@H](N)C(=O)NCC(=O)N[C@@H](Cc1c[nH]cn1)C(N)=O)Cc1ccccc1)Cc1ccccc1)[C@@H](C)c1ccccc1)[C@@H](C)c1ccccc1)C(=O)CN(C(=O)CN(CCCCN)C(=O)CN(Cc1ccccc1)C(=O)CN(Cc1ccccc1)C(=O)CNCCCCN)[C@@H](C)c1ccccc1 (H-[Nlys][Nphe][Nphe][Nlys][Nspe][Nspe][Nlys][Nspe][Nspe][Nlys][Nphe][Nphe]-X1) , please?
Result: 7.73

* * *

test: Hemolytic activity in male Sprague-Dawley rat erythrocytes at 50 uM incubated for 1 hr by absorbance based method relative to control; assay type: toxicity, cell-based, Erythrocyte; settings: read-out: Activity
Non-standard residues stand in square brackets, D forms with d. Residues, ends and D or L forms follow the SMILES beside them. *: point of attachment. X3 = NC(=O)[C@H](Cc1c[nH]cn1)NC(=O)CNC(=O)[C@@H](N)CN(CCc1c[nH]c2ccccc12)*; X1 = NC(=O)[C@H](Cc1c[nH]cn1)NC(=O)CNC(=O)[C@@H](N)CN*; Gly(N(CH2)2(3-indolyl)) = O=C(O)CNCCc1c[nH]c2ccccc12; Nspe = C[C@H](NCC(=O)O)c1ccccc1; Nphe = O=C(O)CNCc1ccccc1; Nlys = NCCCCNCC(=O)O
Measured Quantity: hemolysis at 1 h, 50 µM (%)
Answers are plain numbers, in %.

Below are worked cases with known answers.
C[C@@H](c1ccccc1)N(CC(=O)N(CCCCN)CC(=O)N(CC(=O)N(CC(=O)N(CCCCN)CC(=O)N(CC(=O)N(CC(N)=O)Cc1ccccc1)Cc1ccccc1)[C@@H](C)c1ccccc1)[C@@H](C)c1ccccc1)C(=O)CN(C(=O)CN(CCCCN)C(=O)CN(Cc1ccccc1)C(=O)CN(Cc1ccccc1)C(=O)CN(CCCCN)C(=O)[C@H](Cc1c[nH]cn1)NC(=O)CNC(=O)CN)[C@@H](C)c1ccccc1 (H-GGH[Nlys][Nphe][Nphe][Nlys][Nspe][Nspe][Nlys][Nspe][Nspe][Nlys][Nphe][Nphe]-NH2) : 8.68
C[C@@H](c1ccccc1)N(CC(=O)N(CCCCN)CC(=O)N(CC(=O)N(CC(=O)N(CCCCN)CC(=O)N(CC(=O)N(CC(=O)NC[C@H](N)C(=O)NCC(=O)N[C@@H](Cc1c[nH]cn1)C(N)=O)Cc1ccccc1)Cc1ccccc1)[C@@H](C)c1ccccc1)[C@@H](C)c1ccccc1)C(=O)CN(C(=O)CN(CCCCN)C(=O)CN(Cc1ccccc1)C(=O)CN(Cc1ccccc1)C(=O)CNCCCCN)[C@@H](C)c1ccccc1 (H-[Nlys][Nphe][Nphe][Nlys][Nspe][Nspe][Nlys][Nspe][Nspe][Nlys][Nphe][Nphe]-X1) : 2.32
C[C@@H](c1ccccc1)N(CC(N)=O)C(=O)CN(CCCCN)C(=O)CN(C(=O)CN(C(=O)CN(CCCCN)C(=O)CN(C(=O)CN(C(=O)CN(CCCCN)C(=O)CN(C(=O)CN(C(=O)CN(CCCCN)C(=O)[C@H](Cc1c[nH]cn1)NC(=O)CNC(=O)CN)[C@@H](C)c1ccccc1)[C@@H](C)c1ccccc1)[C@@H](C)c1ccccc1)[C@@H](C)c1ccccc1)[C@@H](C)c1ccccc1)[C@@H](C)c1ccccc1 (H-GGH[Nlys][Nspe][Nspe][Nlys][Nspe][Nspe][Nlys][Nspe][Nspe][Nlys][Nspe]-NH2) : 32

Q: Recorded hemolysis at 1 h, 50 µM for C[C@@H](c1ccccc1)N(CC(=O)N(CCCCN)CC(=O)N(CC(=O)N(CC(=O)N(CCCCN)CC(=O)N(CC(=O)N(CC(=O)N(CCCCN)CC(=O)N(CCc1c[nH]c2ccccc12)CC(=O)N(CCc1c[nH]c2ccccc12)C[C@H](N)C(=O)NCC(=O)N[C@@H](Cc1c[nH]cn1)C(N)=O)[C@@H](C)c1ccccc1)[C@@H](C)c1ccccc1)[C@@H](C)c1ccccc1)[C@@H](C)c1ccccc1)C(=O)CN(C(=O)CNCCCCN)[C@@H](C)c1ccccc1 (H-[Nlys][Nspe][Nspe][Nlys][Nspe][Nspe][Nlys][Nspe][Nspe][Nlys][Gly(N(CH2)2(3-indolyl))]-X3) , please?
Result: 20.3

* * *

test: Hemolytic activity in male Sprague-Dawley rat erythrocytes assessed as concentration required for 50% hemolysis incubated for 1 hr by absorbance based method; format: toxicity, cell-based, Erythrocyte
Non-standard residues stand in square brackets, D forms with d. Residues, ends and D or L forms follow the SMILES beside them. Gly(N(CH2)2(3-indolyl)) = O=C(O)CNCCc1c[nH]c2ccccc12; Nspe = C[C@H](NCC(=O)O)c1ccccc1; Nphe = O=C(O)CNCc1ccccc1; Nlys = NCCCCNCC(=O)O
Measured Quantity: HC50 at 1 h

Q: Recorded HC50 at 1 h for C[C@@H](c1ccccc1)N(CC(N)=O)C(=O)CN(C(=O)CN(CCCCN)C(=O)CN(Cc1ccccc1)C(=O)CN(Cc1ccccc1)C(=O)CN(CCCCN)C(=O)CN(Cc1ccccc1)C(=O)CN(Cc1ccccc1)C(=O)CN(CCCCN)C(=O)CN(CCc1c[nH]c2ccccc12)C(=O)CN(CCc1c[nH]c2ccccc12)C(=O)CN(CCCCN)C(=O)[C@H](Cc1c[nH]cn1)NC(=O)CNC(=O)CN)[C@@H](C)c1ccccc1 (H-GGH[Nlys][Gly(N(CH2)2(3-indolyl))][Gly(N(CH2)2(3-indolyl))][Nlys][Nphe][Nphe][Nlys][Nphe][Nphe][Nlys][Nspe][Nspe]-NH2) , please?
Result: > 100 µM

* * *

test: Selectivity index, ratio of HC10 for hemolytic activity in male Sprague-Dawley rat erythrocytes to MIC for antibacterial activity against Escherichia coli ATCC 25922; assay type: toxicity; details: read-out: Selectivity Index
Non-standard residues stand in square brackets, D forms with d. Residues, ends and D or L forms follow the SMILES beside them. *: point of attachment. X1 = NC(=O)[C@H](Cc1c[nH]cn1)NC(=O)CNC(=O)[C@@H](N)CN*; Nspe = C[C@H](NCC(=O)O)c1ccccc1; Nphe = O=C(O)CNCc1ccccc1; Nlys = NCCCCNCC(=O)O
Label n if selectivity ratio falls below 4; label y in every other case.

Q: Exam item: decide whether the reported selectivity ratio for C[C@@H](c1ccccc1)N(CC(=O)N(CCCCN)CC(=O)N(CC(=O)N(CC(=O)N(CCCCN)CC(=O)N(CC(=O)N(CC(N)=O)Cc1ccccc1)Cc1ccccc1)[C@@H](C)c1ccccc1)[C@@H](C)c1ccccc1)C(=O)CN(C(=O)CN(CCCCN)C(=O)CN(Cc1ccccc1)C(=O)CN(Cc1ccccc1)C(=O)CNCCCCN)[C@@H](C)c1ccccc1 (H-[Nlys][Nphe][Nphe][Nlys][Nspe][Nspe][Nlys][Nspe][Nspe][Nlys][Nphe][Nphe]-NH2) is at least 4.
Result: n

Q: Exam item: decide whether the reported selectivity ratio for C[C@@H](c1ccccc1)N(CC(=O)N(CCCCN)CC(=O)N(CC(=O)N(CC(=O)N(CCCCN)CC(=O)N(CC(=O)N(CC(=O)N(CCCCN)CC(=O)N(CC(=O)N(CC(N)=O)Cc1ccccc1)Cc1ccccc1)Cc1ccccc1)Cc1ccccc1)Cc1ccccc1)Cc1ccccc1)C(=O)CN(Cc1ccccc1)C(=O)CNCCCCN (H-[Nlys][Nphe][Nspe][Nlys][Nphe][Nphe][Nlys][Nphe][Nphe][Nlys][Nphe][Nphe]-NH2) is at least 4.
Result: y

Q: Exam item: decide whether the reported selectivity ratio for C[C@@H](c1ccccc1)N(CC(=O)NC[C@H](N)C(=O)NCC(=O)N[C@@H](Cc1c[nH]cn1)C(N)=O)C(=O)CN(CCCCN)C(=O)CN(C(=O)CN(C(=O)CN(CCCCN)C(=O)CN(C(=O)CN(C(=O)CN(CCCCN)C(=O)CN(C(=O)CN(C(=O)CNCCCCN)[C@@H](C)c1ccccc1)[C@@H](C)c1ccccc1)[C@@H](C)c1ccccc1)[C@@H](C)c1ccccc1)[C@@H](C)c1ccccc1)[C@@H](C)c1ccccc1 (H-[Nlys][Nspe][Nspe][Nlys][Nspe][Nspe][Nlys][Nspe][Nspe][Nlys][Nspe]-X1) is at least 4.
Result: y
